Experiment: Apparent permeability in human Caco2 cells
Format: ADME, cell-based
Run conditions: Caco-2
Result type: Papp (×10⁻⁶ cm/s)
Report only the number, with the unit ×10⁻⁶ cm/s understood.

**Query** Which Papp is reported for this compound? Cc1cc(-c2cnc3[nH]cc(-c4ccc(C(=O)O)cc4)c3c2)cc2c1C(=O)N([C@@H](C)C1CC1)C2
**Result** 1.07

* * *

Species: Homo sapiens
Experiment: Selectivity index, ratio of inhibition for PI3Kdelta (unknown origin) to inhibition for PI3K p120 gamma (unknown origin) using phosphatidylinositol 4,5-bisphosphate as substrate in presence of ATP incubated for 60 mins by ADP-Glo assay
# Selectivity ratio per entry
Respond numerically, and do not add a unit to the figure.

Here's what some known entries look like.
COC[C@H](C)N1Cc2cc(-c3cnc4[nH]cc(-c5ccncc5)c4c3)cc(C)c2C1=O: 216
Cc1cc(-c2cnc3[nH]cc(-c4ccncc4)c3c2)cc2c1C(=O)N(C(C1CC1)C1CC1)C2: 901
Cc1cc(-c2cnc3[nH]cc(-c4ccncc4)c3c2)cc2c1C(=O)N(C1CCOCC1)C2: 18
C[C@@H](C1CC1)N1Cc2cc(-c3cnc4[nH]cc(-c5ccc(C6(C(=O)O)CC6)cc5)c4c3)cc(C(F)(F)F)c2C1=O: 620

**Query** Which Selectivity ratio is reported for this compound? Cc1cc(-c2cnc3[nH]cc(-c4ccncc4)c3c2)cc2c1C(=O)N(CC(F)(F)F)C2
**Result** 62
